- system-name: Carboanhydrase IX (Homo sapiens, UniProt Q16790 38-459)
- assay-procedure: cell-based or functional assay
Here, each record is paired with measured EC50 (nM) SNU-5 data.
# number only, unit nM dropped from output

Identify the reported EC50 (nM) SNU-5 for the following entry. Example 304 (antibody, human IgG1, kappa, V domains shown, linker-toxophore on cysteine S) VH: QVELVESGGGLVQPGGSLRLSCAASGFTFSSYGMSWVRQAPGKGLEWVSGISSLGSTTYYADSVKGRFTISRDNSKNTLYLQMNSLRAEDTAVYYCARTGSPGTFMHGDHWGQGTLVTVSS VL: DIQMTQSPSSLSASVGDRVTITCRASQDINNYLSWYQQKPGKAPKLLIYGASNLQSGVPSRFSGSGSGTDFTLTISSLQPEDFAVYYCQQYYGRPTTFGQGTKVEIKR
0.6

With those in mind, consider the next binder.
Note down EC50 (nM) SNU-5 recorded for Example 303 (antibody, human IgG1, kappa, V domains shown, linker-toxophore on lysine NH) VH: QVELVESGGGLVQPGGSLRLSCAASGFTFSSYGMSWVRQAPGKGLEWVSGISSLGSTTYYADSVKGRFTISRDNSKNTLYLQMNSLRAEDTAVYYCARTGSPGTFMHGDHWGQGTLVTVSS VL: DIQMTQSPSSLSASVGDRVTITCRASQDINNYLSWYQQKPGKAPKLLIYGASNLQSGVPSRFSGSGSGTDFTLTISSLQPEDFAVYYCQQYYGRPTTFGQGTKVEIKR
3.3
